# testedSystem: Tubulin
# protocolDetails: Inhibition of tubulin polymerization (unknown origin)
pIC50: −log10 of the molar value.
measuredEndpoint: pIC50

[[record]]
smilesstructure = "COC(=O)Nc1nc2ccc(/C=C\\c3cc(OC)c(OC)c(OC)c3)cc2[nH]1"
measuredendpoint = "pIC50"
obsvalue = 5.80

[[record]]
smilesstructure = "COC(=O)Nc1nc2ccc(C(=O)c3ccc(OC)cc3O)cc2[nH]1"
measuredendpoint = "pIC50"
obsvalue = 5.66

[[record]]
smilesstructure = "COC(=O)Nc1nc2ccc(C(=O)c3sccc3O)cc2[nH]1"
measuredendpoint = "pIC50"
obsvalue = 5.70

